target: ALK5 (Homo sapiens, UniProt P36897); test: Radiometric 33PanQinase ALK5 kinase assay (ProQinase), casein substrate; type: biochemical; details: compound at 10 μM, in duplicate; read-out: Residual Activity (%) ALK5
Sequence (P36897 205-495 limits assumed): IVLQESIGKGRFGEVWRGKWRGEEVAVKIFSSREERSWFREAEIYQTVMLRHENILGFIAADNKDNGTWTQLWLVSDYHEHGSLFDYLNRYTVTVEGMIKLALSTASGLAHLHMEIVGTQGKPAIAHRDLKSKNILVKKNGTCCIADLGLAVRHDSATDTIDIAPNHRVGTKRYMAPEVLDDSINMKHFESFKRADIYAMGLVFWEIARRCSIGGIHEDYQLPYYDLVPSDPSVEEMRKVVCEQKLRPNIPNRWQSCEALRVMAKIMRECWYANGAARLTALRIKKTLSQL
Recorded Endpoint: remaining activity at 10 µM (%)

Molecule	Recorded Endpoint	Measured
Cc1csc(-c2c(-c3ccc4nccnc4c3)cnn2CC(=O)Nc2ccccc2F)n1 [Compound 17b]	remaining activity at 10 µM	73
CN(C)c1cccc(-c2nn(CC(=O)Nc3ccccc3F)cc2-c2ccc3nccnc3c2)n1 [Compound 14b]	remaining activity at 10 µM	84
Cc1csc(-c2nn(CC(=S)Nc3ccccc3F)cc2-c2ccc3nccnc3c2)n1 [Compound 19b]	remaining activity at 10 µM	2

P: CN(C)c1cccc(-c2c(-c3ccc4nccnc4c3)cnn2CC(=O)Nc2cccc(F)c2)n1 [Compound 15c]
Q: Cc1csc(-c2nn(CC(=S)Nc3cccc(C#N)c3)cc2-c2ccc3nccnc3c2)n1 [Compound 19d]
Query: Which shows the larger remaining activity at 10 µM value: P or Q ? In your reply, give the label of the chosen option.
Reply: P
(P: 88%, Q: 13%)

----------
target: UniProt Q16539; assay: Radiometric 33PanQinase p38α MAP kinase assay (ProQinase), ATF2 substrate; format: biochemical; settings: compound at 10 μM, in duplicate; read-out: Residual Activity (%) p38α
Sequence (Q16539 whole entry): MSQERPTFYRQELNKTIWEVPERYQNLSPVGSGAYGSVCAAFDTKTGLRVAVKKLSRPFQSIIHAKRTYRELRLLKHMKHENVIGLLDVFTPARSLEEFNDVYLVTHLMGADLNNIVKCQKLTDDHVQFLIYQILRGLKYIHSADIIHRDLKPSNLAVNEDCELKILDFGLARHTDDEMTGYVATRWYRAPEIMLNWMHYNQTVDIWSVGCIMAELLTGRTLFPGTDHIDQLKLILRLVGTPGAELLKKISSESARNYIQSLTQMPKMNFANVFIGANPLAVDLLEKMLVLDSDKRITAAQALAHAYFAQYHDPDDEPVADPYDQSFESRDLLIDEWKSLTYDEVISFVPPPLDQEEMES
Recorded Endpoint: remaining activity at 10 µM (%)

Compound	Measured
Cc1csc(-c2nn(CC(=S)Nc3ccccc3)cc2-c2ccc3nccnc3c2)n1 [Compound 19a]	102
CN(C)c1cccc(-c2c(-c3ccc4nccnc4c3)cnn2CC(=O)Nc2cccc(C#N)c2)n1 [Compound 15d]	109
CN(C)c1cccc(-c2nn(CC(=S)Nc3cccc(C#N)c3)cc2-c2ccc3nccnc3c2)n1 [Compound 18d]	119
Cc1csc(-c2nn(CC(=S)Nc3cccc(C#N)c3)cc2-c2ccc3nccnc3c2)n1 [Compound 19d]	105
Cc1csc(-c2nn(CC(=S)Nc3ccccc3F)cc2-c2ccc3nccnc3c2)n1 [Compound 19b]	92
CN(C)c1cccc(-c2nn(CC(=S)Nc3ccccc3F)cc2-c2ccc3nccnc3c2)n1 [Compound 18b]	125
Cc1csc(-c2nn(CC(=O)Nc3ccccc3)cc2-c2ccc3nccnc3c2)n1 [Compound 16a]	98
Cc1csc(-c2nn(CC(=O)Nc3ccccc3F)cc2-c2ccc3nccnc3c2)n1 [Compound 16b]	103
CN(C)c1cccc(-c2nn(CC(=S)Nc3ccccc3)cc2-c2ccc3nccnc3c2)n1 [Compound 18a]	119
Cc1csc(-c2c(-c3ccc4nccnc4c3)cnn2CC(=O)Nc2cccc(C#N)c2)n1 [Compound 17d]	97
CN(C)c1cccc(-c2c(-c3ccc4nccnc4c3)cnn2CC(=O)Nc2ccccc2)n1 [Compound 15a]	118
CN(C)c1cccc(-c2nn(CC(=O)Nc3ccccc3)cc2-c2ccc3nccnc3c2)n1 [Compound 14a]	110
CN(C)c1cccc(-c2nn(CC(=O)Nc3ccccc3F)cc2-c2ccc3nccnc3c2)n1 [Compound 14b]	118

----------
Target: ALK5 (Homo sapiens, UniProt P36897)
Assay: Radiometric 33PanQinase ALK5 kinase assay (ProQinase), casein substrate
Assay type: biochemical
Details: compound at 10 μM, in duplicate; read-out: Residual Activity (%) ALK5
Protocol: To investigate whether compounds 14a–d, 15a–d, 16a–d, 17a–d, 18a–d, and 19a–d would inhibit ALK5, a kinase assay for preliminary screening was performed using the purified human ALK5 kinase domain produced in Sf9 insect cells and compounds at 10 μM. All kinase experiments were completed by the ProQinase (Freiburg, Germany). […]
Recorded Endpoint: remaining activity at 10 µM (%)

Compound	Unit String	remaining activity at 10 µM
Cc1csc(-c2c(-c3ccc4nccnc4c3)cnn2CC(=O)Nc2cccc(F)c2)n1 [Compound 17c]	%	69
Cc1csc(-c2nn(CC(=O)Nc3ccccc3)cc2-c2ccc3nccnc3c2)n1 [Compound 16a]	%	5
CN(C)c1cccc(-c2c(-c3ccc4nccnc4c3)cnn2CC(=O)Nc2cccc(C#N)c2)n1 [Compound 15d]	%	94
Cc1csc(-c2nn(CC(=O)Nc3ccccc3F)cc2-c2ccc3nccnc3c2)n1 [Compound 16b]	%	5
CN(C)c1cccc(-c2c(-c3ccc4nccnc4c3)cnn2CC(=O)Nc2ccccc2)n1 [Compound 15a]	%	95
CN(C)c1cccc(-c2nn(CC(=S)Nc3ccccc3F)cc2-c2ccc3nccnc3c2)n1 [Compound 18b]	%	70
CN(C)c1cccc(-c2nn(CC(=O)Nc3ccccc3)cc2-c2ccc3nccnc3c2)n1 [Compound 14a]	%	85

A: CN(C)c1cccc(-c2nn(CC(=O)Nc3cccc(C#N)c3)cc2-c2ccc3nccnc3c2)n1 [Compound 14d]
B: CN(C)c1cccc(-c2nn(CC(=S)Nc3cccc(C#N)c3)cc2-c2ccc3nccnc3c2)n1 [Compound 18d]
C: Cc1csc(-c2nn(CC(=O)Nc3cccc(F)c3)cc2-c2ccc3nccnc3c2)n1 [Compound 16c]
D: CN(C)c1cccc(-c2nn(CC(=O)Nc3cccc(F)c3)cc2-c2ccc3nccnc3c2)n1 [Compound 14c]
Query: List items by remaining activity at 10 µM in falling order. Output spec: a listing of the labels in the requested order.
Reply: A, B, D, C
